These data points were gathered from ChEMBL document CHEMBL1201862.

# Test system: UO-31
# method-notes: NCI tumour cell line growth inhibition, 48 h
Activity calls are given as the source filed them. Cut-off read from the data, not from the text of the source: active = GI50 up to about 1.1 µM and inactive = higher.
Your answer must be one of the following: true for active, false for inactive

Worked set:
O=[N+]([O-])c1ccc(C2=Nc3ccccc3[S+]([O-])C(c3ccccc3)C2)cc1 (stereo not given) | false
Nc1nc(SCc2ccccn2)c2ncn(C3CCCC3)c2n1 | false
Cc1cc(N(CCC#N)CCC#N)ccc1/N=N/c1ccc(C(=O)O)cc1 | false
CN1C(c2ccccc2)=CC(=O)C(O)=C(c2ccccc2)S1(=O)=O | false
Oc1ccc2c(c1)OCC1c3ccccc3OC21 (stereo not given) | false
O=C1[C@H]2ON(c3ccccc3)C(c3ccco3)[C@H]2C(=O)N1c1ccc(Cc2ccc(N3C(=O)[C@@H]4ON(c5ccccc5)C(c5ccco5)[C@@H]4C3=O)cc2)cc1 (stereo not given in full) | false

In the following, a different compound is considered.
Which outcome was entered for the compound CC(=O)OC/C=C(\C)CCC(Br)C(C)(C)Br (stereo not given) in this test?
true
